# Assay System: HIV-1 integrase wild-type (IN1-288) (Human immunodeficiency virus 1, UniProt P12497 P12497:1148-1435)
# Assay Method Text: inhibition
Readout Type: log10(IC50) (log10 of the value in nM)
Give log10 of IC50, with IC50 taken in nM.

Exercise: State its log10(IC50): GTGGTTGGTGTGGTTGG (structured_DNA, pPT (PS at first and last linkages)) [T30673]
Solution: 2.78

Exercise: State its log10(IC50): GTGGTGGGTGGGTGGGT (structured_DNA, pPT; capital T = C-5 propynyl dU (position 5)) [T30700]
Solution: 1.60

Exercise: State its log10(IC50): GTGGTGGGTGGGTGGGT (structured_DNA, pPT; N5,N13 = C-5 propynyl dU [n positions 5,13 = modified dU]) [T30702]
Solution: 1.48

Exercise: State its log10(IC50): GTGGTGGGGTGGTGGGT (structured_DNA, pPT (PS at first and last linkages)) [T30697]
Solution: 1.11

Exercise: State its log10(IC50): GTGGTGGGTGGGTGGGT (structured_DNA, pPT; N13 = 5-iodo dU [n positions 13 = modified dU]) [T30578]
Solution: 1.70

Exercise: State its log10(IC50): GTGGTGGGCGGGTGGGT (structured_DNA, pPT) [T30744]
Solution: 1.78

Exercise: State its log10(IC50): GTGGTGGGTGGGTGGGT (structured_DNA, pPT; N5 = 5-iodo dU [n positions 5 = modified dU]) [T30576]
Solution: 1.70

Exercise: State its log10(IC50): GTGGGTGGTGGGGTGGT (structured_DNA, pPT (PS at first and last linkages)) [T30699]
Solution: 1.70
